RARγ/RARβ ratio values by entry
- STUDY SYSTEM: RARγ (Mus musculus (Mouse), UniProt P18911)
- Sequence (P18911 185-419): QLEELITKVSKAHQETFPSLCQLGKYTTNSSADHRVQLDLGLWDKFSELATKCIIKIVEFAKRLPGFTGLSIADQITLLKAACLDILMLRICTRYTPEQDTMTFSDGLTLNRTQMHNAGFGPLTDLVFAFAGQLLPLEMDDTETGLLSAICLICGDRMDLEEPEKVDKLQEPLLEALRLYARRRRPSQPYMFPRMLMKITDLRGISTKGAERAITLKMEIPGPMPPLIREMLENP
- MEASUREMENT PROTOCOL: Transactivation assay for RARγ (gal4-RAR fusion, pFR-luc reporter, COS-7 cells), Table 2
- Assay type: cell-based
- CONDITION DESCRIPTION: fold-selectivity for RARβ over RARγ; >1 = selective for RARβ
Format: numeric value only, no unit, no commentary.

# SMILES ENTRY, RECORDED ENDPOINT, EXPERIMENTAL VALUE
records = [
    ("Cc1cc(C(=O)O)ccc1-c1nnc(-c2cc3c(C)ccc(C)c3o2)o1", "RARγ/RARβ ratio", 1.2),
]

Ask: Could you share which RARγ/RARβ ratio value was measured for `Cc1ccc(C)c2oc(-c3noc(-c4ccc(C(=O)O)cc4)n3)cc12` ?
Result: 1

Ask: Could you share which RARγ/RARβ ratio value was measured for `Cc1ccc(C)c2oc(-c3nnc(-c4ccc(C(=O)O)cc4)o3)cc12` ?
Result: 2.9

Ask: Could you share which RARγ/RARβ ratio value was measured for `Cc1cc(C(=O)O)ccc1-c1nc(-c2cc3c(C)ccc(C)c3o2)no1` ?
Result: 1.3

Ask: Could you share which RARγ/RARβ ratio value was measured for `Cc1ccc(C)c2oc(-c3noc(-c4ccc(C(=O)O)cc4Cl)n3)cc12` ?
Result: 2.5

Ask: Could you share which RARγ/RARβ ratio value was measured for `O=C(O)c1ccc(-c2noc(-c3cc4c(C(F)(F)F)ccc(F)c4o3)n2)cc1` ?
Result: 2

Ask: Could you share which RARγ/RARβ ratio value was measured for `Cc1ccc(C)c2oc(-c3nnc(-c4ccc(C(=O)O)c(F)c4)o3)cc12` ?
Result: 1.3

Sourced from patent US10752616B2
